// provenance: the supplement of paper PMC10732440

- Test system: Caenorhabditis elegans N2 infected with Nematocida parisii ERTm1
- Assay Remarks: progeny production relative to DMSO uninfected control; higher = more progeny despite microsporidia infection (inhibition of infection with low host toxicity)
- Recorded Conditions: infection time 6 days; 100 µM
Assign progeny production to each entry below.
Please give a number only; it is taken to be in %.

Field request: progeny production | item: O=C(Nc1cccc(C2=NCCN2)c1)c1ccc(-c2ccc(C(=O)Nc3cccc(C4=NCCN4)c3)cc2)cc1
27.6

Field request: progeny production | item: CC1CCc2c(N3CCC(O)CC3)c(F)cc3c(=O)c(C(=O)O)cn1c23 (stereo not given)
11

Field request: progeny production | item: C[C@H]1COc2c(N3CCN(C)CC3)c(F)cc3c(=O)c(C(=O)O)cn1c23
12.8

Field request: progeny production | item: N[C@@H]1CN(c2c(F)cc3c(=O)c(C(=O)O)cn([C@@H]4C[C@@H]4F)c3c2Cl)CC12CC2
13.4

Field request: progeny production | item: COc1ccc(COc2cc3oc(=O)c4cc(C(C)O)ccc4c3cc2OC)cc1 (stereo not given)
10.9

---

- System: Caenorhabditis elegans N2 infected with Nematocida parisii ERTm1
- Assay Remarks: progeny production relative to DMSO uninfected control; higher = more progeny despite microsporidia infection (inhibition of infection with low host toxicity)
- Recorded Conditions: infection time 6 days; 100 µM
Tick T if progeny production is 20% or greater. Tick F if progeny production is less than 20%.

Hi team, for N=C(N)c1ccc(COc2ccc(Cl)cc2)cc1 , is the recorded progeny production at or above 20%?
F

Hi team, for NS(=O)(=O)c1ccc(NC(=O)NC(c2ccccc2)c2ccccc2)cc1 , is the recorded progeny production at or above 20%?
F

Hi team, for CCC(C)n1ncn(-c2ccc(N3CCN(c4ccc(OCC5COC(Cn6cncn6)(c6ccc(Cl)cc6Cl)O5)cc4)CC3)cc2)c1=O (stereo not given) , is the recorded progeny production at or above 20%?
T

Hi team, for CC#C[C@]1(O)CC[C@H]2[C@@H]3CCC4=CC(=O)CCC4=C3[C@@H](c3ccc(N(C)C)cc3)C[C@@]21C , is the recorded progeny production at or above 20%?
F

---

- Test system: Caenorhabditis elegans N2 infected with Nematocida parisii ERTm1
- Assay Remarks: progeny production relative to DMSO uninfected control; higher = more progeny despite microsporidia infection (inhibition of infection with low host toxicity)
- Recorded Conditions: infection time 6 days; 40 µM
Recorded Metric: progeny production (%)
Please give a number only; it is taken to be in %.

Field request: progeny production | item: CCNC(=O)Nc1cn2c(-c3ncc(CC)cn3)cc(-c3cccnc3)cc2n1
3.09

Field request: progeny production | item: O=S(=O)(Nc1ccc(O)cc1)c1cccc2cccnc12
5.85

Field request: progeny production | item: CCC(CC)[C@H](NC(C)=O)[C@@H]1[C@H](O)[C@@H](C(=O)O)C[C@H]1NC(=N)N
6.29

Field request: progeny production | item: CCc1ccccc1OCCN1CCCCCC1
7.17

Field request: progeny production | item: O=C(N[C@H](CCS)C(=O)N[C@H](Cc1ccccc1)C(=O)O)c1cc2ccccc2[nH]1
6.68

Field request: progeny production | item: O=C(O)c1cc(-c2ccccc2)nc2ccccc12
6.15

Field request: progeny production | item: CCc1cc(O)c(Oc2ccc(C(N)=O)cc2F)cc1F
3.13

Field request: progeny production | item: O=C(NCCN1CCCCC1)c1cccc(C(F)(F)F)c1
5.09

Field request: progeny production | item: CC[C@H]1OC(=O)[C@H](C)[C@@H](O[C@H]2C[C@@](C)(OC)[C@@H](O)[C@H](C)O2)[C@H](C)[C@@H](O[C@@H]2O[C@H](C)C[C@H](N(C)C)[C@H]2O)[C@](C)(O)C[C@@H](C)C(=O)[C@H](C)[C@@H](O)[C@]1(C)O
3.49

Field request: progeny production | item: CCCCCCCc1[nH]c2ccccc2c(=O)c1O
7.38

Field request: progeny production | item: CC(C)(C)c1ccc(Oc2ccc(N)cc2)cc1
3.17

Field request: progeny production | item: Cc1c(N)cccc1Cn1ccc(OCCc2cccs2)cc1=O
7.99

Field request: progeny production | item: Cc1cc(O)c2c(c1)C(=O)c1c(I)c(O)c(I)c(O)c1C2=O
8.9

Field request: progeny production | item: O=c1[nH]c(=O)n(Cc2cccc(Oc3ccccc3)c2)cc1Nc1ccccc1
4.29

Field request: progeny production | item: CS(=O)(=O)c1ccc(Oc2ccc(Cl)cc2)cc1
2.98

Field request: progeny production | item: COc1ccc(CNC(=O)C(NS(=O)(=O)c2ccc3nc(C)sc3c2)C(C)C)cc1 (centres undefined)
4.14

Field request: progeny production | item: OCCC#Cc1nc(-c2ccc(F)cc2)c(-c2ccncc2)n1CCCc1ccccc1
5.08

Field request: progeny production | item: Nc1ccc2oc(=O)ccc2c1I
3.87

Field request: progeny production | item: Oc1c(C(Nc2nc3ccccc3s2)c2ccc(OC(F)F)cc2)ccc2cccnc12 (centres undefined)
3.08

Field request: progeny production | item: NC[C@H]1OB(O)c2c(OCCCO)cccc21
4.23

Field request: progeny production | item: CCCCCOc1ccc(/C=C2\Oc3c(ccc(O)c3O)C2=O)c(O)c1
2.87

Field request: progeny production | item: Cn1c2ccccc2c(=O)c2c(O)cccc21
3.85

Field request: progeny production | item: CNc1nc(=O)[nH]cc1F
2.97

Field request: progeny production | item: O=C(O)c1ccccc1Sc1ncnc2sc3c(c12)CCC3
3.94

Field request: progeny production | item: O=C(O)C(Cc1c[nH]c2ccccc12)N1C(=O)c2ccccc2C1=O (centres undefined)
6.93

Field request: progeny production | item: C[C@@H](NC(=O)c1cccc(-c2cnc(-c3cc4ccccc4cn3)[nH]2)c1)c1ccc(F)cc1
5.74

Field request: progeny production | item: Nc1nnc(-c2ccc(Cl)cc2)s1
5.44

Field request: progeny production | item: Fc1ccc2c(/C=C/c3cccnc3)c[nH]c2c1
3.47

Field request: progeny production | item: CC1(C)[C@H](C(=O)O)N2C(=O)C[C@H]2S1(=O)=O
4.44

Field request: progeny production | item: Cc1cc(C)n2nc(C(=O)NS(=O)(=O)c3c(C)cccc3OC(F)(F)F)nc2n1
9.33

Field request: progeny production | item: COc1ccc(-n2cnc3cc(NCc4ccco4)ccc32)cc1
10

Field request: progeny production | item: Nc1nc(F)nc2c1ncn2[C@H]1O[C@@H](CO)[C@H](O)[C@@H]1O
2.33

Field request: progeny production | item: CCc1ccc(C2CC(C(F)(F)F)n3ncc(C(=O)NCc4ccc(OC)cc4)c3N2)cc1 (centres undefined)
8.73

Field request: progeny production | item: O=C(Nc1ccc(Cl)c(C(F)(F)F)c1)C(CCCl)C(=O)Nc1ccc(Cl)c(C(F)(F)F)c1
7.13

Field request: progeny production | item: O=C(Nc1[nH]c(=O)ncc1F)c1ccccc1
4.09

Field request: progeny production | item: CC1CN(c2ncnc3c2c(-c2ccccc2)cn3-c2ccc(F)cc2)CC(C)O1 (centres undefined)
4.39

Field request: progeny production | item: CCC[C@@H]1C[C@@H](C(=O)N[C@@H]([C@H]2O[C@H](SC)[C@H](O)[C@@H](O)[C@H]2O)[C@H](C)Cl)N(C)C1
6.74

Field request: progeny production | item: CSc1ccc2c(c1)C(N1CCN(C)CC1)Cc1ccccc1S2 (centres undefined)
5.75

Field request: progeny production | item: CCCNc1ccc(S(=O)(=O)Nc2cc(C)on2)cc1
3.09

Field request: progeny production | item: NNC(=O)c1ccncc1
12.3

Field request: progeny production | item: Cc1oncc1C(=O)Nc1ccc(C(F)(F)F)cc1
3.59

Field request: progeny production | item: CC(=O)N1CCN(c2ccc(OCC3COC(Cn4ccnc4)(c4ccc(Cl)cc4Cl)O3)cc2)CC1 (centres undefined)
5.16

Field request: progeny production | item: N#Cc1cc([N+](=O)[O-])ccc1Oc1ccccc1Cl
5.2

Field request: progeny production | item: N[C@@H]1CN(c2c(F)cc3c(=O)c(C(=O)O)cn([C@@H]4C[C@@H]4F)c3c2Cl)CC12CC2
9.37

---

Assign progeny production to each entry below.
- System: Caenorhabditis elegans N2 infected with Nematocida parisii ERTm1
- Assay Remarks: progeny production relative to DMSO uninfected control; higher = more progeny despite microsporidia infection (inhibition of infection with low host toxicity)
- Recorded Conditions: infection time 6 days; 40 µM
Please give a number only; it is taken to be in %.

Field request: progeny production | item: Cc1ncc([N+](=O)[O-])n1CC(O)CN1CCOCC1 (configuration not stated)
9.17

Field request: progeny production | item: COc1ccc(NS(=O)(=O)c2ccc(Cl)s2)cn1
4.12

Field request: progeny production | item: Cc1ccc(S(=O)(=O)Nc2cccc3cccnc23)cc1
6.57

Field request: progeny production | item: CONC(=N)c1ccc(-c2ccc(-c3ccc(C(=N)NOC)cc3)o2)cc1
5.44

Field request: progeny production | item: O=C1C=C(c2ccccc2)S(=O)(=O)c2ccccc21
9.24

Field request: progeny production | item: CCOC(=O)Nc1cc(NC(C)CC(C)CN(CC)CC)c2nc(-c3ccccc3)c(-c3ccccc3)nc2n1 (configuration not stated)
2.55

Field request: progeny production | item: CCN(CC)S(=O)(=O)c1ccc(Cl)c(C(=O)Nc2sc3c(c2C#N)CCCC3)c1
6.31

Field request: progeny production | item: CC(C)N(c1cc(-c2ccccc2)sc1C(=O)O)C(=O)[C@H]1CC[C@H](C)CC1
4.15

Field request: progeny production | item: Nc1nc(=O)c(Br)c(-c2ccccc2)[nH]1
5.86

Field request: progeny production | item: O=C(Nc1ncc(Cc2cccc3ccccc23)s1)C1CCCCC1
8.93

Field request: progeny production | item: O=C(Nc1ccc(-c2ccccc2)cc1)C1=C(O)C(Cc2ccccc2)OC1=O (configuration not stated)
5.44

Field request: progeny production | item: CCO/N=C/c1ccc(OCCCCN2CCN(c3ccncc3)C2=O)cc1
5.24

Field request: progeny production | item: COc1ccc(C[C@@H](C)[C@@H](C)Cc2ccc(OC)c(OC)c2)cc1OC
3.86

Field request: progeny production | item: COc1cc(C(C(=O)NC2CCCCC2)N(C(=O)Cc2c[nH]c3ccccc23)c2ccc(C(C)C)cc2)cc(OC)c1OC (configuration not stated)
5.01

Field request: progeny production | item: CC(C)Cn1c(=O)n(C)c(=O)c2c(-c3cncn3C)n(Cc3cccc4ccccc34)nc21
4.44

Field request: progeny production | item: Oc1cccc(C(Nc2nccs2)c2ccc3cccnc3c2O)c1 (configuration not stated)
4.05

Field request: progeny production | item: Cc1ccc(C)c(OCCCCCCN2C[C@H](O)[C@@H](O)[C@H](O)[C@H]2CO)c1
3.54

Field request: progeny production | item: N#Cc1c(F)c(Cl)c(NCc2ccccc2)c(C#N)c1F
32.6

Field request: progeny production | item: C[C@H]1COc2c(N3CCN(C)CC3)c(F)cc3c(=O)c(C(=O)O)cn1c23
5.38

Field request: progeny production | item: COc1cc(NCc2ccc3nc(N)nc(N)c3c2C)cc(OC)c1OC
2.11

Field request: progeny production | item: CN1c2ccc(Cl)cc2N(c2ccccc2)C(=O)c2cn(Cc3ccc(CN4CCOCC4)cc3)nc21
5.41

Field request: progeny production | item: Oc1cc(-c2cccc3ccccc23)[nH]n1
2.92
